Numbers sourced from PubChem BioAssay (NCI).

tested on: IGROV1 ovarian; assay: NCI-60 one-dose screen, 48 h (100 = growth as untreated, 0 = no growth, -100 = all killed); details: 10 µM unless noted
The panel holds about 83,000 compounds, 20% with a hit somewhere; the sample as a whole holds those more often.
Readout Name: growth (%)

- O=C1/C=C/[C@@H](O)[C@@H]2C[C@@H](O)C[C@H]2/C=C/CCC[C@H](CCc2ccc3ncccc3c2)O1: -4.38
- c1ccc(Cn2cnc3ccc(-c4nc(-c5ccc6c(c5)ncn6C5CCCCC5)cn5ccnc45)cc32)cc1: 5.81
- O=C(CCN1CCCC1)Nc1ccc2c(NCc3ccccc3)c3ccccc3nc2c1: 3.89
- COc1cc(/C=C\c2cc(OC)c(OC)c(OC)c2)cc(NC(=O)/C=C/c2cc(OC)c(OC)c(OC)c2)c1OC: 52.8
- C=C1C(=O)O[C@H]2[C@H]1CC/C(COC(=O)NCc1c[nH]c3ccc(Cl)cc13)=C\CC[C@@]1(C)O[C@@H]21: -65.8
- COc1cc2c(=O)n(CCN)c3c4cc5c(cc4ccc3c2cc1OC)OCO5: -75.6

* * *

Reported growth is given for each of the following compounds.
system: SNB-19 CNS; assay: NCI-60 one-dose screen, 48 h (100 = growth as untreated, 0 = no growth, -100 = all killed); settings: 10 µM unless noted
The panel holds about 83,000 compounds, 20% with a hit somewhere; the sample as a whole holds those more often. Calls of active or inactive are those of the source. The calls were made as follows: active = growth percent below 10; inactive = the rest.
Readout Name: growth

- CCOc1cccc(-c2nc(N)nc(Nc3ccccc3SSc3ccccc3Nc3nc(N)nc(-c4cccc(OCC)c4)n3)n2)c1: 55.1% (inactive)
- C=C(C)[C@@H]1CC[C@]2(C(=O)N3CCN(C)CC3)CC[C@]3(C)[C@H](CC[C@@H]4[C@@]5(C)CC[C@H](O)C(C)(C)[C@@H]5CC[C@]43C)[C@@H]12: -52% (active)
- OCc1cnccc1NCCCCOc1ccc(Oc2ccccc2)cc1: 74.6% (inactive)
- CC1=C(C(=O)/C=C/c2ccc(N(C)C)cc2)C(c2ccccc2)NC(=S)N1 (stereo not drawn): 95.1% (inactive)
- CCN(c1ccccc1)S(=O)(=O)c1cc([N+](=O)[O-])ccc1Cl: 85% (inactive)
- Cc1ccccc1NS(=O)(=O)c1cccc(C(=O)Nc2ccc(Br)cc2)c1: 42.9% [25 µM] (inactive)
- Cn1cc(-c2nc(-c3c[nH]c4c(Cl)nccc34)cs2)c2cc(F)ccc21: 98% (inactive)
- O=Cc1cc2ccccc2nc1Oc1ccc(C(F)(F)F)cc1: 90.7% (inactive)
- CC1(C)CC[C@]23CC[C@]4(C)[C@H](CC[C@@H]5[C@@]6(C)CCCNC(C)(C)[C@@H]6CC[C@]54C)[C@H]2[C@H]1OC3: -20.2% (active)
- CNC(=O)c1cncc(Cn2nc(C)c(NC(=O)c3ccc(COc4ccc(C(F)(F)F)cc4C)cc3)c2C)c1: 56.6% (inactive)
- COc1cc(/C=C/C(=O)c2nc3cc(F)ccc3nc2C)cc(OC)c1OC: 77.9% (inactive)
- Cc1ccc(C(=O)/C(=C/c2ccc([N+](=O)[O-])cc2)SCc2ccc(Cl)cc2)cc1: 34.1% (inactive)
- Cn1ccc2c1CC1CN(Cc3ccco3)C(=O)C1C2C(=O)O (stereo not drawn): 98% (inactive)
- NS(=O)(=O)c1ccc(CCN2C(=O)c3cc(Cl)c(Cl)cc3C2=O)cc1: 109% (inactive)
- CCCCCOc1ccc(/C=N/Nc2cc(C)nc3ccc(Cl)cc23)cc1: 16.9% (inactive)
- CC(C)(C)c1cc(/C=N/NC(=O)c2ccccc2NC(=O)c2cccs2)c(O)c(C(C)(C)C)c1: 40.6% (inactive)
- O=[N+]([O-])c1ccc(NC(=S)N/N=C/c2cc3ccccc3n3nnnc23)cc1: 29.8% (inactive)
- NC1[C@H](c2c[nH]c3ccccc23)c2c([nH]c3ccccc23)[C@H]1c1c[nH]c2ccccc12 (stereo partly drawn): 95.2% (inactive)
- C[C@@H](Nc1ncnc2ccc(-c3cnc(N)nc3)cc12)c1ccc(F)cc1: 76.1% (inactive)
- N#Cc1c(NC(=O)NCc2ccccc2)sc2c1CCCCC2: 28.2% (inactive)
- N#C/C(=C\c1ccc(Cl)cc1)n1nnc2cc(F)c(F)cc21: 34.5% (inactive)
- COc1ccc(/C=N/NC(=O)c2cnn3c2NC(c2ccccc2)C3)cc1OC (stereo not drawn): 62.6% (inactive)
- N#CC(C(=O)/C(=N/NC(=O)c1ccccc1O)C(C#N)c1ccccc1)c1ccccc1 (stereo not drawn): 33.2% (inactive)

* * *

Test system: MCF7 breast
Assay: NCI-60 one-dose screen, 48 h (100 = growth as untreated, 0 = no growth, -100 = all killed)
Settings: 10 µM unless noted
Protocol: Growth inhibition of the MCF7 human tumor cell line is measured as a screen for anti-cancer activity. Cells are grown in 96 well plates and exposed to the test compound for 48 hours. Compounds are tested at a single concentration, which is 10^-5 M for most compounds. The reported endpoint is percent growth (GI% or GIPRCNT), where numbers from 0 - 100% represent growth inhibition, and numbers from -100% - 0 represent cell death. For example, a value of 40 represents 60% growth inhibition. […]
This is part of a sample that, as a whole, favours compounds with a hit. Of some 83,000 tested, about 20% had one in any assay.
Readout Name: growth (%)

• CCOC(=O)[C@@H]1CCCN(S(=O)(=O)c2ccc(S(=O)(=O)N(CC)CC)c(F)c2)C1 = 61.8
• CC(C)(C)CC(C)(C)n1nnnc1C(NC12CC3CC(CC(C3)C1)C2)c1ccccc1 (centres undefined) = 88.9
• COc1cc(/C=C\C(=O)O)ccc1OCc1ccccc1 = 96
• O=C1Nc2cc(-c3cccc([N+](=O)[O-])c3)ccc2/C1=C/c1ccc[nH]1 = 16
• C[C@H]1[C@H](C)CC[C@]2(C(=O)Nc3ccc4ncccc4c3)CC[C@]3(C)C(=CC[C@@H]4[C@@]5(C)CCCNC(C)(C)[C@@H]5CC[C@]43C)[C@H]12 = -83.4
• O=C(Nc1ccc(Cl)cc1)c1cc(NCc2cc(O)ccc2O)ccc1O = 65.6
• CN1CCN(C(=O)[C@]23CCC(C)(C)C[C@H]2C2=CC[C@@H]4[C@@]5(C)C/C(=C/c6ccncc6)C(=O)C(C)(C)[C@@H]5CC[C@@]4(C)[C@]2(C)CC3)CC1 = 18.1
• O=C1CC(=O)OC(c2ccc([N+](=O)[O-])cc2)O1 = 7.35
• O=C(Nc1ccc(F)cc1)Nc1ccc(NC(=O)c2cc(Cl)nc3ccccc23)cc1 = 69
• CC(=O)Nc1ccc(-c2ccc3c(c2)NC(=O)/C3=C\c2ccc[nH]2)cc1 = 9.83
• O=C(Nc1ncc(Cc2cc(Cl)ccc2Cl)s1)c1cccs1 = 32.5
• N#CC(C#N)=Cc1cc2ccccc2nc1Oc1ccc(C(F)(F)F)cc1 = 56.9
• Cn1cc(-c2csc(-c3c[nH]c4ccccc34)n2)c2ccnc(Cl)c21 = 30.3
• N#CC1=C(/N=C/c2ccccc2)Oc2c(ccc3ccccc23)C1c1ccc([N+](=O)[O-])cc1 (centres undefined) = 78.4

* * *

system: SF-268 CNS; assay: NCI-60 one-dose screen, 48 h (100 = growth as untreated, 0 = no growth, -100 = all killed); conditions: 10 µM unless noted
The panel holds about 83,000 compounds, 20% with a hit somewhere; the sample as a whole holds those more often.
Please note: growth exactly at 70% is not satisfied. Only values below 70% get satisfied.

* CCOC(=O)CSc1nc2ccccc2c(=O)n1Cc1ccc(S(N)(=O)=O)cc1 | not satisfied
* COc1cc(CC(=O)c2ccc(O)c(OC)c2)ccc1O | not satisfied
* Cc1cnc(C(=O)Nc2nc3ccc(S(=O)(=O)Nc4ccc(C5(C(F)(F)F)CC5)cc4)cc3[nH]2)cn1 | satisfied
* N#C/C(=C\c1ccc(Cl)cc1)n1nnc2cc(F)c(F)cc21 | satisfied
* O=S(=O)(NCCCNc1nccc(-c2c(-c3cccc(F)c3)nc3sccn23)n1)c1cccc(F)c1 | satisfied
* COc1cc(OC)cc(C(=O)C[n+]2cccc3cc[nH]c32)c1 | not satisfied
* COC(=O)/C=C1\S/C(=N\NC(=O)c2cc3ccc2/C=C\c2ccc(cc2)/C=C\3)N(Cc2ccccc2)C1=O | not satisfied
* CC(C)(C)c1cc(C=O)cc(C(C)(C)C)c1O | not satisfied
* Brc1ccc(Nc2csc(-c3ccccn3)n2)cc1 | not satisfied
* CC(=O)N1N=C(c2ccc(-n3ccc(C(F)(F)F)n3)c(F)c2)CC1c1ccc[nH]1 (stereo not drawn) | not satisfied
* COc1ccc(/C=C/c2nc(Nc3ccc(S(=O)(=O)Nc4nc(C)cc(C)n4)cc3)c3ccccc3n2)cc1 | not satisfied
* O=C(Cn1c[n+](CC(=O)c2ccc([N+](=O)[O-])cc2)c2ccccc21)Nc1cccc2cccnc12 | satisfied
* CC(C)(C)c1cc(/C=N/NC(=O)c2ccccc2NC(=O)c2cccs2)c(O)c(C(C)(C)C)c1 | satisfied
* CN1CCC(=C(c2ccccc2)c2ccccc2)C(c2ccccc2)C1 (stereo not drawn) | not satisfied
* CC(Oc1ccc(C(=O)O)cc1C(F)(F)F)c1ccc(Oc2ccccc2)cn1 (stereo not drawn) | not satisfied
* C/C(=N\Nc1cc(C)nc2ccc(Br)cc12)c1ccc([N+](=O)[O-])cc1 | not satisfied
* Cc1ccc(C(=O)/C(=C\c2ccc([N+](=O)[O-])cc2)S(=O)Cc2ccc(Cl)cc2)cc1 (stereo not drawn) | satisfied
* CCOC(=O)/C(C#N)=C1/NNC(=Nc2cccnc2)S1 | not satisfied
* COc1ccc(/C=C2\COc3ccc(-c4ccccc4)cc3C2=O)c(OC)c1 | not satisfied
* CCN1C(=O)N(CC)C2Nn3c(s/c(=C\c4ccc(OC)cc4)c3=O)=NC21 (stereo not drawn) | satisfied
* C/C(=N\NC(=O)CSc1nc2ccccc2c(=O)n1CCc1ccc(S(N)(=O)=O)cc1)c1ccccn1 | satisfied
* C=C(C)[C@@H]1CC[C@]2(CN)CC[C@]3(C)[C@H](CC[C@@H]4[C@@]5(C)CCCNC(C)(C)[C@@H]5CC[C@]43C)[C@@H]12 | satisfied
* CC1(C)CC[C@]2(C(=O)O)CC[C@]3(C)C(=CC[C@@H]4[C@@]5(C)Cc6c([nH]c7ccccc67)C(C)(C)[C@@H]5CC[C@]43C)[C@@H]2C1 | satisfied
